B1: Ankyrin repeat and SAM domain-containing protein 6, residues 774 to 836; numbered along this chain, Q68DC2 (parent)
chain: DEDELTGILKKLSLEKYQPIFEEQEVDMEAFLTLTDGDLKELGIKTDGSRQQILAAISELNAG

- Variants of: B1
- Assay Protocol: abundance fitness (aPCA) (normalised: wild type 0, dead -1); higher = more abundant; growth selection in yeast, the domain comes from the species named
- Conditions Used: Homo sapiens
Note to self: class = bucket of abundance fitness, per range A: < -0.5; range B: ≥ -0.5 and < -0.2; range C: ≥ -0.2

Field: example entries. Status: answers known.
1. E29A	range C
2. Q24W	range B
3. L34D	range A
4. L60P	range A
5. F31Y	range A

IN: Category of `G48D` :
OUT: range C

IN: Entry `Y17E` belongs to which category?
OUT: range C

IN: Which bin should I file `F31T` under?
OUT: range A

IN: Class? Entry: `L39Y`
OUT: range A

IN: Assign a bin to `L54P`
OUT: range B
